# TESTED_TARGET: T1, Recombinant human Dkk-1 (R&D Systems cat no. 1096-DK/CF), 10xHis tag at the C terminal (human, UniProt O94907 32-266)
# T1 construct: the actual N-terminus of the purified protein is marked in bold italic after residue 30, but the mark is an image lost in the text; also called rhuDkk-1; hDkk-1
# T1 sequence: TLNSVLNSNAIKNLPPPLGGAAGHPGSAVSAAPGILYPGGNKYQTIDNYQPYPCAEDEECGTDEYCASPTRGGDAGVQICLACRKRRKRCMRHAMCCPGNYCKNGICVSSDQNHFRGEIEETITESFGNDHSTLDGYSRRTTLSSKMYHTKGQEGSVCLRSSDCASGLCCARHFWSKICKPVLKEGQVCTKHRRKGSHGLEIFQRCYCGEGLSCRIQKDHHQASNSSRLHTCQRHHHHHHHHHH
# ASSAY_DETAILS: theoretical: koff / estimated kon 1e6 1/Ms (SPR screening 37C)
# Procedure: For screening assays to determine binding and dissociation rates of huMabJC18 variants to human Dkk1, either BIAcore or ProteOn XPR36 (BioRad, Inc.) systems were used. […] For the ProteOn assay, biotinylated human Dkk-1 was injected for 1 min at serial fold dilutions empirically determined to yield different levels of immobilization (150-3000 RU) on five channels of a ProteOn NLC Neutravidin sensor chip. […] Fab dissociation from the Dkk-1 surface was monitored for 20 min. […]
QUANTITY_MEASURED: pKd
In simple prose, pKd is minus the logarithm base ten of a concentration in moles per litre.

INSERT INTO assay_data (binder, quantity_measured, reported_value) VALUES
  ('L2.1G8 (Fab, V domains shown, tested as Fab (E. coli lysate, screening mode); human kappa CL and IgG2 CH1 not included here) VH: EVQLVESGGGLVQPGGSLRLSCAASGFTFSSYAISWVRQAPGKGLEWVASVSGWFDTYYPDSVKGRFTISRDNAKNSLYLQMNSLRAEDTAVYYCATSLENYAFDYWGQGTTVTVSS VL: EIVLTQSPATLSLSPGERATLSCRASESVDDFGISFMNWYQQKPGQAPRLLIYAASKQGSGIPARFSGSGSGTDFTLTISSLEPEDFAVYYCQQSKEVPPTFGGGTKVEIK', 'pKd', 8.59),
  ('1F10.33L (Fab, V domains shown, human kappa CL and IgG2 CH1 not included here) VH: EVQLVESGGGLVQPGGSLRLSCAASGFTFSSYAISWVRQAPGKGLEWVASVSGGFQTYYPDSVKGRFTISRDNAKNSLYLQMNSLRAEDTAVYYCATSLDNYAFDYWGQGTTVTVSS VL: EIVLTQSPATLSLSPGERATLSCRASESVDDFGISFINWYQQKPGQAPRLLIYAGSKQGSGIPARFSGSGSGTDFTLTISSLEPEDFAVYYCQQLKEVPPTFGGGTKVEIK', 'pKd', 10.05),
  ('2H10.33L (Fab, V domains shown, tested as Fab (E. coli lysate, screening mode); human kappa CL and IgG2 CH1 not included here) VH: EVQLVESGGGLVQPGGSLRLSCAASGFTFSSYAISWVRQAPGKGLEWVASVSGWFDTYYPDSVKGRFTISRDNAKNSLYLQMNSLRAEDTAVYYCATSLQNYAFDYWGQGTTVTVSS VL: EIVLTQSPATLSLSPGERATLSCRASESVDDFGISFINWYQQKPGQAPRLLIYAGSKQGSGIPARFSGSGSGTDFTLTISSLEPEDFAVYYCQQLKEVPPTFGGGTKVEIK', 'pKd', 9.83),
  ('L3.4E6 (Fab, V domains shown, tested as Fab (E. coli lysate, screening mode); human kappa CL and IgG2 CH1 not included here) VH: EVQLVESGGGLVQPGGSLRLSCAASGFTFSSYAISWVRQAPGKGLEWVASVSGGLGTYYPDSVKGRFTISRDNAKNSLYLQMNSLRAEDTAVYYCATSLRNYAFDYWGQGTTVTVSS VL: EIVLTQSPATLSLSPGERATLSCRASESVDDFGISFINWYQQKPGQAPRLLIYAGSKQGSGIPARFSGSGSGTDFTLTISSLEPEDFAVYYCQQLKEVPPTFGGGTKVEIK', 'pKd', 9.00);

Now for a further binder.
Field pKd (entry SL3.4E4 (Fab, V domains shown, tested as Fab (E. coli lysate, screening mode); human kappa CL and IgG2 CH1 not included here) VH: EVQLVESGGGLVQPGGSLRLSCAASGFTFSSYAISWVRQAPGKGLEWVASVSGGGRTYYPDSVKGRFTISRDNAKNSLYLQMNSLRAEDTAVYYCATSLENYAFDYWGQGTTVTVSS VL: EIVLTQSPATLSLSPGERATLSCRASESVDDFGISFMNWYQQKPGQAPRLLIYAASKQGSGIPARFSGSGSGTDFTLTISSLEPEDFAVYYCQQSKDVPPTFGGGTKVEIK ) reads 8.11
